- target of assay: T1, PD-1 protein (human, UniProt Q15116 25-167, limits assumed)
- T1 construct: also called human PD-1
- T1 sequence (Q15116 25-167 limits assumed): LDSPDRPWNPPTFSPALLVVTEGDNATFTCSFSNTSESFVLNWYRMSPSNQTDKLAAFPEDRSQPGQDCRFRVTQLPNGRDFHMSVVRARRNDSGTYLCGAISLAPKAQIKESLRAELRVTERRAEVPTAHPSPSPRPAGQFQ
- protocol description: blocking ELISA, PD-1 coated, competitor biotin PD-L1
Criterion: OD450 of PD-L1 bound, antibody at 2.42 µg/mL strictly less than 3 OD450. Met: T. Not met: F.

binder	group
504#SS5 (Fc fusion, VHH-FC construct from HEK293 cells; not shown: The (G4S)3 linker leading to it is left out with it) VHH: QVQLVESGGGSAQAGGSLRLSCTASGRPFSIYDMGWFRQAPGKERESVAVINLSRGNTYYADSVKGRFTISLDSAKNTVYLQMNSLKPEDTAVYSCGVDRRQYGLGIPPLADYWGQGTQVTVSS	T
504#SS7 (Fc fusion, VHH-FC construct from HEK293 cells; not shown: The (G4S)3 linker leading to it is left out with it) VHH: QVQLVESGGGLVQAGGSLTLSCAASGRTFNSYAMGWFRQAPGKEREFVAAISQNGGSQGYAEAVKDRFTISRDNTNKVVALQMNSLKPEDTAAYYCAADGDASDRSYAPPRDYKYEYWGQGTQVTVSS	F
504#SS25 (Fc fusion, not shown: a dimerising Fc or GST; small tags and cut ends, VHH-FC construct from HEK293 cells) VHH: QVQLVETGGGLVQAGGSLRLSCAASGDTIFISSMAWYRQAPGKERELVASIDSDDIIYYAATVKGRFTISRDNDKPTMYLQMDTLQPEDTAVYYCRVESQDYYFDYDRDSWGQGTQVTVSS	F
504#SS30 (Fc fusion, not shown: a dimerising Fc or GST; small tags and cut ends, VHH-FC construct from HEK293 cells) VHH: EVQLVETGGGLVQAGGSLRLACEVSGRTFSSYAMGWFRQAPGREREFVASIRVSGGITDYADSVKGRFTISRDNAKDTVYLQMINLKPEDTAVYYCNADISRYRFSRGDYWGKGTLVTVSS	F
504#SS29 (Fc fusion, not shown: a dimerising Fc or GST; small tags and cut ends, VHH-FC construct from HEK293 cells) VHH: QVQLVESGGGLVQAGGSLRLSCAASGRTFSGYTMGWFRRAPGKERELIANILWNSARRYYADSVKGRFTISRDNAMNTVDLQMNSLKPEDTAVYYCAVLVDSTYRFSNQGTQVTVSS	F
504#SS23 (Fc fusion, not shown: a dimerising Fc or GST; small tags and cut ends, VHH-FC construct from HEK293 cells) VHH: QVQLVESGGGLVQPGGSLRLSCAASGFTFSSYVMSWVRQAPGKGLEWVSAINSGGSSSSYPESVKDRFTVSRDNAKNTLYLQMNSLKPEDTAVYFCAAKNVPGFYYSDYANHEYDYWGQGTQVTVSS	F
